Target: T1, mouse P2X7 (mouse, UniProt Q9Z1M0 1-595)
T1 sequence: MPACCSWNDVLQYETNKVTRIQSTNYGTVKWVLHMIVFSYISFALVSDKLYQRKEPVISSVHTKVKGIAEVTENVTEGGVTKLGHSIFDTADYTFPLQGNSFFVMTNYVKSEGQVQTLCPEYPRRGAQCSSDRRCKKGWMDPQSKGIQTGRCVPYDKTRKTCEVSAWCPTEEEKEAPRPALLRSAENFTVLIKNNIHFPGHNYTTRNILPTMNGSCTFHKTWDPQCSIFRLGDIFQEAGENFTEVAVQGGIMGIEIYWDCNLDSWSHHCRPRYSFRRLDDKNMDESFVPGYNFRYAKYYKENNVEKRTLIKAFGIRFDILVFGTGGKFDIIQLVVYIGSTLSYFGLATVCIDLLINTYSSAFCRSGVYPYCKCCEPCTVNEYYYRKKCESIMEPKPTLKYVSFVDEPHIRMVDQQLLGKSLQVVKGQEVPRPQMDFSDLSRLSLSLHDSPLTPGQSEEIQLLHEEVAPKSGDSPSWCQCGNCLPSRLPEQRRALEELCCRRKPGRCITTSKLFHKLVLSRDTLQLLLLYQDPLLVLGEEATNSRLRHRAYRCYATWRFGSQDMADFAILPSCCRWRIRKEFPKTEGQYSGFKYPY
Assay: cell-based or functional assay
Field: IC50 (nM) against 20 uM NAD (CD62L shedding, Yac-1 cells). Provide a value for each of the binders that follow.
One number for each entry, in nM.

binder	quantitative_result
P2X7PMP8G11 (VHH, family 5, 1; on phage or c-myc/His6-tagged in assays; also called 8011) VHH: AVQLVESGGGLVQAGGSLRLSCAASGNFFRVNTMAWYRQAPGKQRELVADITRGDRTNYADTVNGRFTISRDNVRNTVYLQMNGLRPEDTAAYYCYAVIELGVLEPRDYWGQGTQVTVSS	68

Fill in IC50 (nM) against 20 uM NAD (CD62L shedding, Yac-1 cells) for each of the 3 binders listed.
1. P2X7PMP13G9 (VHH, family 23; on phage or c-myc/His6-tagged in assays) VHH: EVQLVESGGGLVQAGGSLRLSCVASGRTFSILTMGWFRQAPGKEREFVAAISGIGAIHYADSVKGRFTLSRDNARNTVSLHMNSLKPEDTAVYYCAAKANYESPSRETSYAYWGQGTQVTVSS
2. P2X7PMP8G12 (VHH, family 5, 3; on phage or c-myc/His6-tagged in assays; also called 8012) VHH: KVQLVESGGGLVQAGGSLRLSCAASGSFFRVNNMAWYRQGPGKQRELVADITRGDRTNYADSVNGRFTISRDNVRNTVYLQMNGLKPEDTAVYYCYATIELGVLEPRDYWGQGTQVTVSS
3. P2X7PMP7H6 (VHH, family 11; on phage or c-myc/His6-tagged in assays) VHH: EVQLVESGGGLVQPGGSLRLSCVVSGSMYRIDNMGWYRQAPGKQRELVATVTRGDITNYADSVKGRFTIGRDNAKNTVYLQMNSLKPADTAVYYCNIDSYIIGAGVRDYWGRGTQVTVSS

136
82
208
